- Method: protein stability index of a GFP-peptide fusion (yeast GPS) (PSI 1-4); higher = more stable; sorted into four equal gates, so the index is relative within each strain
- Experimental setup: san1∆
# protein stability index values compiled below
Form field (numeric): enter value without unit.

{"Query sequence": "SQLKKTKAQQKTAEQIA [RPL7B]", "Measured value": 2.95}
{"Query sequence": "GNVVMDIGKGAETTFLQ [RPC53]", "Measured value": 3.02}
{"Query sequence": "WNLNQFQIEADFIGHNS [ASC1]", "Measured value": 2.95}

Attention now shifts to the item below.
INPUT: Supply measured protein stability index of AALAPKIGPLGLSPKKV [RPL12A] in your reply.
OUTPUT: 3.02
